- assay_target: Rabies virus glycoprotein G, ERA strain (attenuated vaccine strain, ATCC VR332) (Rabies virus, ERA strain (genotype 1 lyssavirus)) (UniProt P03524)
- Sequence (P03524 20-524 limits assumed): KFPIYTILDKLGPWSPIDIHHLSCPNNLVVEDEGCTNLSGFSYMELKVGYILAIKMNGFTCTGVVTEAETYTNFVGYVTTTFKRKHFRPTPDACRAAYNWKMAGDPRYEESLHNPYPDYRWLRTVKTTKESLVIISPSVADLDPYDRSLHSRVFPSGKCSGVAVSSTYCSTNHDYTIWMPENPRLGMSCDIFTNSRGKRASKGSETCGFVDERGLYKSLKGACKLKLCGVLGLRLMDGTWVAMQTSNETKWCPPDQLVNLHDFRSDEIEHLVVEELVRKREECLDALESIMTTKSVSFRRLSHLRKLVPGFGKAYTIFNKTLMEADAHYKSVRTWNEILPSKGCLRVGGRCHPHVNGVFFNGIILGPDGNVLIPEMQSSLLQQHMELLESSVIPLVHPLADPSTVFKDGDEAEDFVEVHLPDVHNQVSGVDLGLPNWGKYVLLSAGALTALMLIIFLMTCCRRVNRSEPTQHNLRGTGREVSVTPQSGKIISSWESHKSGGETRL
- run_description: cell-based or functional assay
readout_type: ERA neutralizing antibody titer (RFFIT): nM IC50 (nM)
Note: unit nM is implicit; provide only the numeric part.

{"binder": "LG213B7 (VHH) VHH: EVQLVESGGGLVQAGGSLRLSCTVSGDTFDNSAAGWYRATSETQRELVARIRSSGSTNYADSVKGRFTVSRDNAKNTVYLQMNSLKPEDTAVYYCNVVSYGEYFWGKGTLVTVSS", "measure_unit": "nM", "assay_value": 268}

Turning to the following binder.
Query string: Sample LG214C10 (VHH) VHH: EVQLVESGGGLVQPGGSLRLSCAASGFIFGSYDMSWVRQAPGKGPEWVSGINSGGGSTGYADSVKGRFTISRDNAKNTLYLQMNSLKPEDTAVYYCSTNLYPTTDDVWGQGTQVTVSS — what was its ERA neutralizing antibody titer (RFFIT): nM IC50?
Result string: 63.7
